Origin of measurements: ChEMBL document CHEMBL1157479

experiment: Cytotoxicity against human HMEC1 cells by MTT assay; type: cell-based; conditions: HMEC-1
This listing pairs molecules with measured IC50.

MOLECULE: CCN(CC)CCCC(C)Nc1ccnc2cc(Cl)ccc12.O=P(O)(O)O.O=P(O)(O)O (stereo not drawn) [CHLOROQUINE PHOSPHATE]
IC50: > 40 µM
//
MOLECULE: Clc1ccc2c(NCC34CCCN3CCC4)ccnc2c1
IC50: > 60 µM
//
MOLECULE: Clc1ccc2c(NCCC34CCCN3CCC4)ccnc2c1
IC50: > 60 µM
